Reported values of NPI (Mtb growth in J774 cells), average for individual entries
Test system: Mtb growth in J774 murine macrophage-like cells
TEST_DESCRIPTION: microbe, parasite or virus in culture
Type: cell-based, Mycobacterium tuberculosis
MEASUREMENT_PARAMETERS: 0.3125 µM, Fig 1F
Your answer is read as %, so omit the unit and give the number.

Record excerpt, results attached:
* CCSc1ncc(CN2CCN(c3nc4ccccc4o3)CC2)cn1 | -0.93
* O=C(c1cnc2ccccn12)N1CCCC(CCc2cccc(C(F)(F)F)c2)C1 (stereo not shown) | -0.235
* O=C(c1cnn2ccccc12)N1CCCC(CCc2cccc(C(F)(F)F)c2)C1 (stereo not shown) | -7.245

Read the next record carefully.
[Q] Specify measured NPI (Mtb growth in J774 cells), average for "CCCSc1ncc(CN2CCN(c3ncnc4[nH]cnc34)CC2)cn1" .
[A] 9.675

----------
Test system: Mtb
TEST_DESCRIPTION: Mtb growth assay in cholesterol medium (OD600)
MEASUREMENT_PARAMETERS: Fig. 2G; day 3; average
PROPERTY_MEASURED: OD600

Record excerpt, results attached:
* CCSc1ncc(CN2CCN(c3nc4ccccc4s3)CC2)cn1 | 0.06
* COc1ncc(CN2CCN(c3nc4ccccc4o3)CC2)cn1 | 0.1

[Q] Quote OD600 with test system Mtb for "CCSc1ccc(CN2CCN(c3nc4ccccc4o3)CC2)cc1"
[A] 0.06

[Q] Quote OD600 with test system Mtb for "c1ccc2oc(N3CCN(Cc4cncnc4)CC3)nc2c1"
[A] 0.09333

[Q] Quote OD600 with test system Mtb for "CCSc1ncc(CN2CCN(c3nc4ccccc4o3)CC2)cn1"
[A] 0.06

----------
TEST_DESCRIPTION: Human plasma protein binding
Assay type: in vitro ADME
PROPERTY_MEASURED: fraction unbound
I only need the number, thanks.

[Q] Specify measured fraction unbound for "CCSc1ncc(CN2CCN(c3nc4ccccc4o3)CC2)cn1" .
[A] 0.008

----------
Reported values of OD600 for individual entries
Tested on: Mtb
TEST_DESCRIPTION: Mtb growth assay in standard 7H9 medium (OD600)
MEASUREMENT_PARAMETERS: Fig. 2F; day 3; average
I only need the number, thanks.

Record excerpt, results attached:
- COc1ncc(CN2CCN(c3nc4ccccc4o3)CC2)cn1 [JSF-4271]: 0.2
- CCSc1ncc(CN2CCN(c3nc4ccccc4o3)CC2)cn1 [C6]: 0.1933
- CCSc1ccc(CN2CCN(c3nc4ccccc4o3)CC2)cc1 [JSF-4300]: 0.1733
- CCSc1ncc(CN2CCN(c3nc4ccccc4s3)CC2)cn1 [JSF-4298]: 0.1867

Read the next record carefully.
[Q] Quote OD600 with test system Mtb for c1ccc2oc(N3CCN(Cc4cncnc4)CC3)nc2c1 [JSF-4297]
[A] 0.1933

----------
Tested on: Mtb growth in J774 murine macrophage-like cells
TEST_DESCRIPTION: microbe, parasite or virus in culture
Type: cell-based, Mycobacterium tuberculosis
MEASUREMENT_PARAMETERS: 10 µM, Fig 1F
Reported values of NPI (Mtb growth in J774 cells), average for individual entries
Your answer is read as %, so omit the unit and give the number.

• O=C(c1cnc2ccccn12)N1CCCC(CCc2cccc(C(F)(F)F)c2)C1 (stereo not shown) [C5] = 50.85
• CCSc1ncc(CN2CCN(c3nc4ccccc4o3)CC2)cn1 [C6] = 40.45
• CCCSc1ncc(CN2CCN(c3ncnc4[nH]cnc34)CC2)cn1 [C6 analog] = 41.15

Read the next record carefully.
[Q] Specify measured NPI (Mtb growth in J774 cells), average for O=C(c1cnn2ccccc12)N1CCCC(CCc2cccc(C(F)(F)F)c2)C1 (stereo not shown) [C5 analog] .
[A] 21.35

----------
TEST_DESCRIPTION: Kinetic aqueous solubility
Assay type: physicochemical
MEASUREMENT_PARAMETERS: pH 7.4 phosphate buffered saline; read-out: kinetic aqueous solubility (S)
Reported values of solubility kinetic for individual entries
Your answer is read as µM, so omit the unit and give the number.

* O=C(c1cnc2ccccn12)N1CCCC(CCc2cccc(C(F)(F)F)c2)C1 (centres unmarked) | 6.67

Read the next record carefully.
[Q] Specify measured solubility kinetic for "CCSc1ncc(CN2CCN(c3nc4ccccc4o3)CC2)cn1" .
[A] 76.4

----------
TEST_DESCRIPTION: Pharmacokinetic assay, single oral dose in CD-1 mice
Assay type: in vivo
MEASUREMENT_PARAMETERS: female, CD-1, mouse; 5-hour partitioning between plasma and lung, 25 mg/kg po; read-out: Clung/Cplasma
PROPERTY_MEASURED: Kp at 5 h
I only need the number, thanks.

[Q] Specify measured Kp at 5 h for "CCSc1ncc(CN2CCN(c3nc4ccccc4o3)CC2)cn1" .
[A] 0.86

----------
TEST_DESCRIPTION: Human plasma stability
Type: in vitro ADME
MEASUREMENT_PARAMETERS: 5-h incubation
PROPERTY_MEASURED: remaining at 5 h (%)
Your answer is read as %, so omit the unit and give the number.

[Q] Specify measured remaining at 5 h for CCSc1ncc(CN2CCN(c3nc4ccccc4o3)CC2)cn1 [C6] .
[A] 94.6

----------
Reported values of rv1405c assay NPI at 20 uM for individual entries
Tested on: CDC1551(rv1405c′::GFP) reporter Mtb strain
TEST_DESCRIPTION: microbe, parasite or virus in culture
Assay type: cell-based, Mycobacterium tuberculosis
MEASUREMENT_PARAMETERS: 20 uM

Record excerpt, results attached:
- CCOc1ccc(OCCN(CC)CC(O)c2ccc(C)cc2)cc1 (centres unmarked) [RU-0211290]: 129
- O=C(Nc1ccc(OCC(F)(F)F)nc1)N1CCCCCCC1 [RU-0275323, FC(F)(F)COC1=NC=C(NC(=O)N2CCCCCCC2)C=C1]: 112
- O=S1(=O)CC(S(=O)(=O)Nc2ccccc2-c2cccs2)c2ccccc21 (centres unmarked) [RU-0214604]: 212
- Cc1ccc(NS(=O)(=O)c2ccc(C)c(F)c2)c(C(=O)O)c1 [RU-0273440]: 23.8

Read the next record carefully.
[Q] Specify measured rv1405c assay NPI at 20 uM for O=C(Nc1cccc(C(F)(F)F)c1)c1n[nH]c(=O)c2ccccc12 [RU-0270645] .
[A] 138

----------
Reported values of activity at 10 µM for individual entries
System: CDC1551(rv2390c′::GFP) reporter Mtb strain, response to high [Cl−]
TEST_DESCRIPTION: microbe, parasite or virus in culture
Format: cell-based, Mycobacterium tuberculosis
MEASUREMENT_PARAMETERS: Mycobacterium tuberculosis, 144 h; 10 µM, pH 6.4, 250 mM NaCl, 6 days; read-out: rv2390c'::GFP validation assay NPA% at 10 µM compound
Your answer is read as %, so omit the unit and give the number.

[Q] Quote activity at 10 µM with test system CDC1551(rv2390c′::GFP) reporter Mtb strain, response to high [Cl−] for "CCCc1ccccc1NC(N)=S"
[A] 56.8

[Q] Quote activity at 10 µM with test system CDC1551(rv2390c′::GFP) reporter Mtb strain, response to high [Cl−] for O=C(c1cnn2ccccc12)N1CCCC(CCc2cccc(C(F)(F)F)c2)C1 (stereo not shown)
[A] 112

[Q] Quote activity at 10 µM with test system CDC1551(rv2390c′::GFP) reporter Mtb strain, response to high [Cl−] for "Cc1ccc(-n2nc(C)c3c(=O)[nH]c(C(F)(F)F)nc32)cc1"
[A] 30.6

[Q] Quote activity at 10 µM with test system CDC1551(rv2390c′::GFP) reporter Mtb strain, response to high [Cl−] for "Cn1cc(CCC(=O)Nc2ccc3c(c2)S(=O)(=O)C=C3)cn1"
[A] 80.9

[Q] Quote activity at 10 µM with test system CDC1551(rv2390c′::GFP) reporter Mtb strain, response to high [Cl−] for "Cc1oc(C(=O)Nc2nnc(C(F)(F)F)[nH]2)cc1S(=O)(=O)N1CCCC1"
[A] 54.8

[Q] Quote activity at 10 µM with test system CDC1551(rv2390c′::GFP) reporter Mtb strain, response to high [Cl−] for "COc1ccc(NCc2ccc(OC)c(Br)c2)cn1"
[A] 135

[Q] Quote activity at 10 µM with test system CDC1551(rv2390c′::GFP) reporter Mtb strain, response to high [Cl−] for "CCc1nnc(NC(=O)c2sc(CC(C)C)nc2C)s1"
[A] 151

[Q] Quote activity at 10 µM with test system CDC1551(rv2390c′::GFP) reporter Mtb strain, response to high [Cl−] for CSc1nc2nc3c(cc2c(=O)[nH]1)C(O)Oc1ccc(C)cc1-3 (stereo not shown)
[A] 49.2

[Q] Quote activity at 10 µM with test system CDC1551(rv2390c′::GFP) reporter Mtb strain, response to high [Cl−] for "C(=C\c1ccccc1)/Cn1nnc(-c2cccs2)n1"
[A] 114

[Q] Quote activity at 10 µM with test system CDC1551(rv2390c′::GFP) reporter Mtb strain, response to high [Cl−] for CC(OC(=O)CC(C)(C)C)c1nc2cc(Cl)ccc2n1C (stereo not shown)
[A] 95.6

[Q] Quote activity at 10 µM with test system CDC1551(rv2390c′::GFP) reporter Mtb strain, response to high [Cl−] for "CC(C)c1cc(C2CCN(C(=O)c3nc(C(C)C)cs3)CC2)[nH]n1"
[A] 103

[Q] Quote activity at 10 µM with test system CDC1551(rv2390c′::GFP) reporter Mtb strain, response to high [Cl−] for "Cn1ccc(C(=O)Nc2nc(Sc3ccccc3)ns2)cc1=O"
[A] 39.2

[Q] Quote activity at 10 µM with test system CDC1551(rv2390c′::GFP) reporter Mtb strain, response to high [Cl−] for "CCSc1ncc(CN2CCN(c3nc4ccccc4o3)CC2)cn1"
[A] 127

[Q] Quote activity at 10 µM with test system CDC1551(rv2390c′::GFP) reporter Mtb strain, response to high [Cl−] for O=c1[nH]c(SCC2OCCc3ccccc32)nc2[nH]ncc12 (stereo not shown) [RU-0271878, O=C1NC(SCC2OCCC3=C2C=CC=C3)=NC2=C1C=NN2]
[A] 63.4

[Q] Quote activity at 10 µM with test system CDC1551(rv2390c′::GFP) reporter Mtb strain, response to high [Cl−] for "CCOC(=O)N1C/C(=C/c2cccc(O)c2)C(=O)/C(=C/c2cccc(O)c2)C1"
[A] 113

[Q] Quote activity at 10 µM with test system CDC1551(rv2390c′::GFP) reporter Mtb strain, response to high [Cl−] for "COC(=O)c1sc(NS(=O)(=O)c2ccc(S(C)(=O)=O)c(F)c2)nc1C"
[A] 55.2
